System: DMS 273 small cell lung
Assay: NCI tumour cell line growth inhibition, 48 h
Recorded TGI for the following compounds

Data request: So what does the record say about TGI for `Cc1ccc(C(=O)O)cc1NC(=O)c1cc(/C=C/c2ccccc2)[nH]c(=S)n1` ?
Data returned: > 100 µM

Data request: So what does the record say about TGI for `CCCCCC(=O)N[C@H]1CCc2cc(O)c(O)c(O)c2-c2ccc(SC)c(=O)cc21` ?
Data returned: > 100 µM

Data request: So what does the record say about TGI for `Nc1nc(-c2ccco2)cc(-c2ccco2)n1` ?
Data returned: > 100 µM

---

Recorded TGI for the following compounds
Test system: KM20L2 colon
Assay: NCI tumour cell line growth inhibition, 48 h

Examples with answers:
{"columns": ["compound", "system_tested", "reported_result"],
 "data": [
  ["COc1cccc(/C=N/[N-]C(=O)c2ccncc2)c1[O-].[Ni+2].[OH3+]", "KM20L2 colon", "> 100 µM"],
  ["COc1cc2c(cc1OC)C1[C@@H](c3ccccc3)OCN1CC2 (some centres undefined)", "KM20L2 colon", "> 100 µM"],
  ["COC1/C=C\\C=C(/C)C(=O)NC2=CC(=O)C(N)=C(CC(C)CC(OC)C(O)C(C)C=C(C)C1OC(N)=O)C2=O (centres undefined)", "KM20L2 colon", "0.0192 µM"]
]}

Kindly review the next compound as well.
Data request: So what does the record say about TGI for `CNc1ccccc1-c1nc2ccccc2c(=O)o1` ?
Data returned: > 100 µM

---

System: HOP-62 NSCLC
Assay: NCI tumour cell line growth inhibition, 48 h
property: GI50

{"columns": ["smiles_data", "property", "reported_result"],
 "data": [
  ["N#Cc1c(-c2ccccc2)cc(-c2ccccc2)n(CCCC(=O)NO)c1=O", "GI50", "2 µM"],
  ["CC(C)=CCC/C(C)=C/CC/C(C)=C/CC/C(C)=C/CSC[C@H](NC(=O)CCCCCN1CCN(C)CC1)C(=O)NC1CCCCC1", "GI50", "8.63 µM"]
]}

Data request: So what does the record say about GI50 for `C=C1C(=O)O[C@H]2[C@H]1CC/C(COC(=O)/C=C/C(=O)NCc1ccc(Cn3c(=O)sn(-c4ccccc4)c3=O)cc1)=C\CC[C@@]1(C)O[C@@H]21` ?
Data returned: 13.2 µM

---

Test system: SNB-19 CNS
Test: NCI tumour cell line growth inhibition, 48 h
Recorded GI50 for the following molecules

Examples with answers:
{"columns": ["molecule", "GI50"],
 "data": [
  ["CC1(C)CN(c2cc(C(F)(F)F)cc3cncn23)CCC12NC(=O)NC2=O (centres undefined)", "46.8 µM"],
  ["Nc1nonc1C(=Nc1ccc(F)c(Cl)c1)NO", "> 94.2 µM"],
  ["COc1cc(/C=C/c2cc(/C=C/c3ccc(O)c(OC)c3)n(-c3c(Cl)cccc3Cl)c(=O)n2)ccc1O", "3.54 µM"],
  ["C=C1C(=O)O[C@H]2[C@H]1CC/C(COC(=O)/C=C/C(=O)NCc1ccc(Cn3c(=O)sn(-c4ccccc4)c3=O)cc1)=C\\CC[C@@]1(C)O[C@@H]21", "4.8 µM"]
]}

Data request: Give SNB-19 CNS GI50 for `COc1cc2c(cc1OCCCCCn1c(-c3ccc(OCc4ccccc4)cc3)nc3cc(N4CCOCC4)ccc31)N=C[C@@H]1CCCN1C2=O`
Data returned: 3.71 µM

Data request: Give SNB-19 CNS GI50 for `COc1cc2c3c(n(CCCNCCNCCN)c(=O)c2cc1OC)-c1cc2c(cc1C3=O)OCO2`
Data returned: 2.12 µM

Data request: Give SNB-19 CNS GI50 for `CCOC(=O)N1C/C(=C/c2ccc(Cl)cc2)C(=O)/C(=C/c2ccc(Cl)cc2)C1`
Data returned: 4.66 µM

Data request: Give SNB-19 CNS GI50 for CNC(=O)NCC1OC(n2cnc3c(NC(=O)Nc4ccccc4)ncnc32)C(O[Si](C)(C)C(C)(C)C)C1CC(=O)N(C)OC (centres undefined)
Data returned: > 23 µM

Data request: Give SNB-19 CNS GI50 for `COc1cc2c(cc1I)-c1c(cc(OC)c(OC)c1OC)CC[C@@H]2NC(C)=O`
Data returned: 0.485 µM
